Listing of entries alongside the reported IC50.
- Tested on: human lung cancer strain NCI-H441
- Assay type: cell-based
Response body: numeric value in nM, unit text excluded.

SMILES STR	TARGET UNDER TEST	UNIT ABBREV	NUMERIC READOUT
CCO[C@@H]1C[C@H]2C(=O)NC3(CC(C)(C)C3)C(=O)N(C)[C@@H](C3CCCC3)C(=O)N(C)[C@H](C(=O)N(C)C)CC(=O)N(C)[C@@H]([C@@H](C)OC)C(=O)N[C@@H]([C@@H](C)CC)C(=O)N3CCC[C@H]3C(=O)N(C)[C@H]3C/C=C\CCN(C3=O)[C@@H](Cc3ccc(C)cc3)C(=O)N(C)CC(=O)N[C@@H](CCc3cc(F)c(C(F)(F)F)c(F)c3)C(=O)N2C1	human lung cancer strain NCI-H441	nM	45.8

Could you now consider this next compound?
Returns the measured IC50 for the input compound. Input: CCCN1C(=O)CN(C)C(=O)CN(C)C(=O)[C@H]([C@@H](C)CC)NC(=O)[C@@H]2CCCCCOc3ccc(cc3)C[C@H]1C(=O)N(C)CC(=O)N[C@@H](CCc1cc(F)c(C(F)(F)F)c(F)c1)C(=O)N1C[C@H](OCC)C[C@H]1C(=O)NC1(CCCC1)C(=O)N(C)[C@@H](C1CCCC1)C(=O)N(C)[C@H](C(=O)N(C)C)CC(=O)N2C 2.2

* * *

- Test system: human lung cancer strain NCI-H441
- METHOD: NCI-H441 cell proliferation inhibitory activity (CellTiter-Glo, 4 days)
- Assay type: cell-based
- TEST SETTINGS: 50% proliferation inhibitory concentration, four days, read-out: NCl-H441 IC50
Listing of entries alongside the reported IC50.
Response body: numeric value in nM, unit text excluded.

Please review the following examples before continuing.
MOLECULE	IC50, nM
CCO[C@@H]1C[C@H]2C(=O)NC3(CCC3)C(=O)N(C)[C@@H](C3CCCC3)C(=O)N(C)[C@H](C(=O)N3CCOCC3)CC(=O)N(C)[C@@H](CC)C(=O)N[C@@H]([C@@H](C)CC)C(=O)N3CC[C@H]3C(=O)N(C)[C@H]3C[C@@H](C)[C@@H](C)CN(C3=O)[C@@H](Cc3ccc(C(F)(F)F)cc3)C(=O)N(C)CC(=O)N[C@@H](CCc3ccc(C(F)(F)F)c(Cl)c3)C(=O)N2C1	5.4
CCO[C@@H]1C[C@H]2C(=O)NC3(CCC3)C(=O)N(C)[C@@H](C3CCCC3)C(=O)N(C)[C@H](C(=O)N3CCOCC3)CC(=O)N(C)[C@@H](CC3CCCCC3)C(=O)N[C@@H]([C@@H](C)CC)C(=O)N(C)CC(=O)N(C)[C@H]3C/C=C\CCN(C3=O)[C@@H](Cc3ccc(C)cc3)C(=O)N(C)CC(=O)N[C@@H](CCc3cc(F)c(C(F)(F)F)c(F)c3)C(=O)N2C1	31.4

Could you now consider this next molecule?
Returns the measured IC50 for the input molecule. Input: CCO[C@@H]1C[C@H]2C(=O)NC3(CCCC3)C(=O)N(C)[C@@H](C3CCCC3)C(=O)N(C)[C@H](C(=O)N(C)C)CC(=O)N(C)[C@@H](CC)C(=O)N[C@@H]([C@@H](C)CC)C(=O)N(C)CC(=O)N(C)[C@H]3C[C@H](C)C(C)CN(C3=O)[C@@H](Cc3ccc(C(F)(F)F)cc3)C(=O)N(C)CC(=O)N[C@@H](CCc3cc(F)c(C(F)(F)F)c(F)c3)C(=O)N2C1 (stereo partly drawn) 3.6

* * *

- TARGET UNDER TEST: GDP-bound KRAS wild-type protein (Homo sapiens)
- Sequence (P01116 1-188 isoform P01116-2): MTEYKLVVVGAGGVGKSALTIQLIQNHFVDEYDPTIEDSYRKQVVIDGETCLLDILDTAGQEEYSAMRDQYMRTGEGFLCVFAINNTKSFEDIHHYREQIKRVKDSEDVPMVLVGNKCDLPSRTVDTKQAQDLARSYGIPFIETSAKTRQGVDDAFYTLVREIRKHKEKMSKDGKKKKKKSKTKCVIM
- METHOD: Binding to KRAS by surface plasmon resonance (SPR), dissociation constant KD
- TEST SETTINGS: Single Cycle Kinetics, 1:1 binding model
QUANTITY KIND: pKd
Note on pKd: it is the negative log10 of concentration, concentration in mol/L.

Please review the following examples before continuing.
SMILES STR	TARGET UNDER TEST	pKd
CCC[C@H]1C(=O)N[C@@H]([C@@H](C)CC)C(=O)N(C)CC(=O)N(C)[C@H]2C/C=C\CCN(C2=O)[C@@H](Cc2ccc(C)cc2)C(=O)N(C)CC(=O)N[C@@H](CCc2cc(F)c(C(F)(F)F)c(F)c2)C(=O)N2CCC[C@H]2C(=O)N(C)C2(CCC2)C(=O)N(C)[C@@H](C2CCCC2)C(=O)N(C)[C@H](C(=O)N(C)C)CC(=O)N1C	GDP-bound KRAS wild-type protein (Homo sapiens)	10.22
CCC[C@@H]1C[C@H]2C(=O)NC3(CC(C)(C)C3)C(=O)N(C)[C@@H](C3CCCC3)C(=O)N(C)[C@H](C(=O)N(C)C)CC(=O)N(C)[C@@H](CCC)C(=O)N[C@@H]([C@@H](C)CC)C(=O)N(C)CC(=O)N(C)[C@H]3C/C=C\CCN(C3=O)[C@@H](Cc3ccc(C)cc3)C(=O)N(C)CC(=O)N[C@@H](CCc3ccc(C(F)(F)F)c(Cl)c3)C(=O)N2C1	GDP-bound KRAS wild-type protein (Homo sapiens)	9.52
CCO[C@@H]1C[C@H]2C(=O)NC3(CCC3)C(=O)N(C)[C@@H](C(CC)CC)C(=O)N(C)[C@H](C(=O)N(C)C)CC(=O)N(C)[C@@H](C)C(=O)N[C@@H]([C@@H](C)CC)C(=O)N(C)CC(=O)N(C)[C@H]3C/C=C\CCN(C3=O)[C@@H](Cc3ccc(C(F)(F)F)cc3)C(=O)N(C)CC(=O)N[C@@H](CCc3ccc(C(F)(F)F)c(OC)c3)C(=O)N2C1	GDP-bound KRAS wild-type protein (Homo sapiens)	9.77
CCO[C@@H]1C[C@H]2C(=O)NC3(CCCC3)C(=O)N(C)[C@@H](C(CC)CC)C(=O)N(C)[C@H](C(=O)N3CCCC3)CC(=O)N(C)[C@@H](COC)C(=O)N[C@@H]([C@@H](C)CC)C(=O)N(C)CC(=O)N(C)[C@H]3C/C=C\CCN(C3=O)[C@@H](CC3CCC(F)(F)CC3)C(=O)N(C)CC(=O)N[C@@H](CCc3cc(F)c(C(F)(F)F)c(F)c3)C(=O)N2C1	GDP-bound KRAS wild-type protein (Homo sapiens)	9.15
CC[C@H](C)[C@@H]1NC(=O)[C@H](CC(C)C)N(C)C(=O)C[C@@H](C(=O)N2CCOCC2)N(C)C(=O)[C@H](C2CCCC2)N(C)C(=O)C2(CCCC2)NC(=O)[C@@H]2CCCN2C(=O)[C@H](CCc2ccc(C(F)(F)F)c(Cl)c2)NC(=O)CN(C)C(=O)[C@H](Cc2ccc(OC)cc2)N2C/C=C\CC[C@@H](C2=O)N(C)C(=O)CN(C)C1=O	GDP-bound KRAS wild-type protein (Homo sapiens)	8.41

Form entry - test system: GDP-bound KRAS wild-type protein (Homo sapiens); read-out: pKd; compound: CCCO[C@@H]1C[C@H]2C(=O)NC3(CCC3)C(=O)N(C)[C@@H](C3CCCC3)C(=O)N(C)[C@H](C(=O)N3CCOCC3)CC(=O)N(C)[C@@H](CC(C)C)C(=O)N[C@@H]([C@@H](C)CC)C(=O)N(C)CC(=O)N(C)[C@H]3CCCCN(C3=O)[C@@H](Cc3ccc(C(F)(F)F)cc3)C(=O)N(C)CC(=O)N[C@@H](CCc3cc(F)c(C(F)(F)F)c(F)c3)C(=O)N2C1 10.44

* * *

Listing of entries alongside the reported IC50.
- Tested on: human lung cancer strain NCI-H441
- Assay type: cell-based
Response body: numeric value in nM, unit text excluded.

SMILES STR	UNIT ABBREV	NUMERIC READOUT
CCO[C@@H]1C[C@H]2C(=O)NC3(CCC3)C(=O)N(C)[C@@H](C3CCCC3)C(=O)N(C)[C@H](C(=O)N3CCOCC3)CC(=O)N(C)[C@@H](CC3CC3)C(=O)N[C@@H]([C@@H](C)CC)C(=O)N(C)CC(=O)N(C)[C@H]3CCCCN(C3=O)[C@@H](Cc3ccc(C(F)(F)F)cc3)C(=O)N(C)CC(=O)N[C@@H](CCc3cc(F)c(C(F)(F)F)c(F)c3)C(=O)N2C1	nM	7.1
CCO[C@@H]1C[C@H]2C(=O)NC3(CCC3)C(=O)N(C)[C@@H](CC(F)F)C(=O)N(C)[C@H](C(=O)N3CCOCC3)CC(=O)N(C)[C@@H](CC(C)C)C(=O)N[C@@H]([C@@H](C)CC)C(=O)N(C)CC(=O)N(C)[C@H]3CCCCCN(C3=O)[C@@H](Cc3ccc(C(F)(F)F)cc3)C(=O)N(C)CC(=O)N[C@@H](CCc3cc(F)c(C(F)(F)F)c(F)c3)C(=O)N2C1	nM	1990
CCO[C@@H]1C[C@H]2C(=O)NC3(CCCC3)C(=O)N(C)[C@@H](C3CCCC3)C(=O)N(C)[C@H](C(=O)N(C)C)CC(=O)N(C)[C@@H](C)C(=O)N[C@@H]([C@@H](C)CC)C(=O)N(C)CC(=O)N(C)[C@H]3CCCCN(C3=O)[C@@H](Cc3ccc(C(F)(F)F)cc3)C(=O)N(C)CC(=O)N[C@@H](CCc3cc(F)c(C(F)(F)F)c(F)c3)C(=O)N2C1	nM	5.3
CCO[C@@H]1C[C@H]2C(=O)NC3(CCC3)C(=O)N(C)[C@@H](C3CCCC3)C(=O)N(C)[C@H](C(=O)N(C)C)CC(=O)N(C)[C@@H](CC(C)C)C(=O)N[C@@H]([C@@H](C)CC)C(=O)N(C)CC(=O)N(C)[C@H]3CCCCCN(C3=O)[C@@H](Cc3ccc(F)cc3)C(=O)N(C)CC(=O)N[C@@H](CCc3ccc(C(F)(F)F)c(Cl)c3)C(=O)N2C1	nM	15.8
CC[C@H](C)[C@@H]1NC(=O)[C@H](CC(C)C)N(C)C(=O)C[C@@H](C(=O)N2CCOCC2)N(C)C(=O)[C@H](C2CCCC2)N(C)C(=O)C2(CC(F)(F)C2)NC(=O)[C@@H]2CCCN2C(=O)[C@H](CCc2cc(F)c(C(F)(F)F)c(F)c2)NC(=O)CN(C)C(=O)[C@H](Cc2ccc(C(F)(F)F)cc2)N2CCCC[C@@H](C2=O)N(C)C(=O)CN(C)C1=O	nM	4.4

Could you now consider this next compound?
Returns the measured IC50 for the input compound. Input: CC[C@H](C)[C@@H]1NC(=O)[C@H](CC2CCC2)N(C)C(=O)C[C@@H](C(=O)N(C)C)N(C)C(=O)[C@H](C2CCCC2)N(C)C(=O)C2(CC(C)(C)C2)NC(=O)[C@@H]2CCCN2C(=O)[C@H](CCc2cc(F)c(C(F)(F)F)c(F)c2)NC(=O)CN(C)C(=O)[C@H](Cc2ccc(C(F)(F)F)cc2)N2CC/C=C\C[C@@H](C2=O)N(C)C(=O)CN(C)C1=O 18.3
